# TARGET OR TEST SYSTEM: GLP-1 receptor (human (printed as hGLP1R), UniProt P43220 24-463)
# ASSAY PROCEDURE: cell-based or functional assay
Starred links: 1 amine or outer side, 2 acyl side, 3 side chain; linkers in the order of their positions; H or OH if unused. Non-standard residues stand in square brackets, D forms with d. Groups on a side chain read outwards from the residue. No end group written: not given here. *: point of attachment. C20 diacid = O=C(O)CCCCCCCCCCCCCCCCCCC(=O)*; C18 diacid = O=C(O)CCCCCCCCCCCCCCCCC(=O)*; γGlu = O=C(O)[C@H](CCC(=O)[*:2])N[*:1]; εLys = N[C@@H](CCCCN[*:1])C(=O)[*:2]; AEEA = NCCOCCOCC(=O)O; Aib = CC(C)(N)C(=O)O
# note: boundary value 3 nM maps to NO; EC50 hGLP1R 100% hP (CreLuc) below it maps to YES

Say whether its EC50 hGLP1R 100% hP (CreLuc) is strictly beneath 3 nM. Entry: YXEGTFTSDYSIXLEKQAQXAFVQWLIKGGPSEGASLRHYYNWLTRXRY (Aib at 2, 13, 20; bHGln (beta-homo-L-glutamine) at 47; K28 side chain carries C20DA-gGlu-gGlu-gGlu-gGlu-gGlu-gGlu-eLys; C-terminal amide) [Compound 186]
YES

Is it true that EC50 hGLP1R 100% hP (CreLuc) reported for Y[Aib]EGTFTSDYSI[Aib]LEKQAQ[Aib]AFVEWLIKGGPSSPASLRHYYNWLTRQRY-NH2 (not fully specified (residue 28); also: TFA salt) [Compound 178] is less than 3 nM?
NO

Would you kindly verify if EC50 hGLP1R 100% hP (CreLuc) of Y[Aib]EGTFTSDYSI[Aib]LEKQAQ[Aib]AFVEWLIK([εLys-γGlu-γGlu-γGlu-γGlu-γGlu-γGlu-γGlu-C20 diacid])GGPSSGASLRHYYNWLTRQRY-NH2 (also: TFA salt) [Compound 225] is strictly less than 3 nM?
YES

Here's an entry: YXEGTFTSDYSIXLELQAQXAFVEWLIKGGPSSGASLRHYYNWLTRQRY (Aib at 2, 13, 20; K28 side chain carries C20DA-gGlu-gGlu-gGlu-gGlu-gGlu-gGlu-eLys; C-terminal amide) [Compound 209] . Is its EC50 hGLP1R 100% hP (CreLuc) below 3 nM?
NO

Field: below-cutoff. Rule: recorded EC50 hGLP1R 100% hP (CreLuc) strictly less than 3 nM. Subject: Y[Aib]EGTFTSDYSI[Aib]LEKQAQ[Aib]AFIEWLIK([γGlu-γGlu-γGlu-γGlu-C18 diacid])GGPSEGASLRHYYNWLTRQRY-NH2 (also: TFA salt) [Compound 247]
YES

Take the binder Y[Aib]EGTFTSDYSI[Aib]LEKQAQ[Aib]AFVEWLIKGGPSSGASLRHYYNW[dD]TRQRY-NH2 (not fully specified (residue 28); also: TFA salt) [Compound 204] and say whether its EC50 hGLP1R 100% hP (CreLuc) is less than 3 nM.
NO

State whether 3 nM exceeds EC50 hGLP1R 100% hP (CreLuc) recorded for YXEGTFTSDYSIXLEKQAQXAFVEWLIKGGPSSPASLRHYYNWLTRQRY (Aib at 2, 13, 20; K28 side chain carries C18DA-gGlu-gGlu-gGlu-gGlu-gGlu; C-terminal amide) [Compound 180] .
NO

Dear colleague, could you confirm whether EC50 hGLP1R 100% hP (CreLuc) of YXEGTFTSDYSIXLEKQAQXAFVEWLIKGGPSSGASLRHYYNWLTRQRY (Aib at 2, 13, 20; D-Tyr at 49; K28 side chain carries C20DA-gGlu-gGlu-gGlu-gGlu-gGlu-gGlu-eLys; C-terminal amide) [Compound 214] falls below 3 nM? Thanks.
YES

In plain terms, does YXEGTFTSDYSIXLEKQAQXAFVEWLIKGGPSSGASLLHYYNWLTRQRY (Aib at 2, 13, 20; K28 side chain carries C20DA-gGlu-gGlu-gGlu-gGlu-gGlu-gGlu-eLys; C-terminal amide) [Compound 210] come in under 3 nM for EC50 hGLP1R 100% hP (CreLuc)?
NO

Please indicate whether the reported EC50 hGLP1R 100% hP (CreLuc) of Y[Aib]EGTFTSDYSI[Aib]LEKQAQ[Aib]EFVQWLIK([γGlu-γGlu-γGlu-γGlu-C18 diacid])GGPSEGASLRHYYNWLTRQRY-NH2 (also: TFA salt) [Compound 202] is strictly below 3 nM.
NO

Report whether reported EC50 hGLP1R 100% hP (CreLuc) is lower than 3 nM (strictly) for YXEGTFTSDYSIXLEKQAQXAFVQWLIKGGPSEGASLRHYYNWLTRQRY (Aib at 2, 13, 20; K28 side chain carries C18DA-E-E-E-E-E (SEQ ID NO: 636); C-terminal amide) [Compound 257]
YES

# strict comparison: is reported EC50 hGLP1R 100% hP (CreLuc) < 3 nM? input = YXEGTFTSDYSIXLEKQAQXAFVEWLIKGGPSTGASLRHYYNWLTRQRY (Aib at 2, 13, 20; K28 side chain carries C20DA-gGlu-gGlu-gGlu-gGlu-gGlu-gGlu-eLys; C-terminal amide) [Compound 244]
NO

EC50 hGLP1R 100% hP (CreLuc) under 3 nM? Item: Y[Aib]EGTFTSDYSI[Aib]LEKQAQ[Aib]AFVQWLIK([AEEA-AEEA-Glu-Glu-Glu-C18 diacid])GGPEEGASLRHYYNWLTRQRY-NH2 (also: TFA salt) [Compound 188]
NO

Does this binder meet the criterion EC50 hGLP1R 100% hP (CreLuc) < 3 nM? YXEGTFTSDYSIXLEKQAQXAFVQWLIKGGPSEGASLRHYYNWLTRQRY (Aib at 2, 13, 20; K28 side chain carries C20DA-gGlu-gGlu-gGlu-gGlu-gGlu-OEG-OEG; C-terminal amide) [Compound 228]
NO

Confirm or reject: EC50 hGLP1R 100% hP (CreLuc) of YXEGTFTSDLSIXLEKQAQXAFVEWLIKGGPSEGASLRHYYNWLTRQRY (Aib at 2, 13, 20; K28 side chain carries C20DA-gGlu-gGlu-gGlu-gGlu-Glu-gGlu-eLys (so in the source); C-terminal amide) [Compound 234] lies strictly below 3 nM
YES

Hello, is EC50 hGLP1R 100% hP (CreLuc) of the following binder strictly smaller than 3 nM? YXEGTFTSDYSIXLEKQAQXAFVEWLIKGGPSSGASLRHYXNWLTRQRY (Aib at 2, 13, 20, 41; K28 side chain carries C20DA-gGlu-gGlu-gGlu-gGlu-gGlu-gGlu-eLys; C-terminal amide) [Compound 184]
YES

Hello, I'm reviewing records and need to know if EC50 hGLP1R 100% hP (CreLuc) of Y[Aib]EGTFTSDYSI[Aib]LEKQAE[Aib]AFVQWLIK([AEEA-AEEA-γGlu-γGlu-γGlu-γGlu-C20 diacid])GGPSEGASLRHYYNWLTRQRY-NH2 (also: TFA salt) [Compound 219] is below 3 nM. Could you check?
NO
